tested on: Staphylococcus aureus; test: Antibacterial activity against methicillin-sensitive Staphylococcus aureus ATCC 29213 assessed as reduction in bacterial growth incubated for 18 hrs by agar dilution method; assay type: functional; conditions: ATCC 29213, 18 h
Some compounds, each annotated with its measured MIC.
test readout: MIC (µg/mL)

1. C=C[C@]1(C)C[C@@H](OC(=O)CS[C@@H]2CC[C@H](C(=O)OCC)C[C@H]2NS(=O)(=O)c2ccc(F)cc2)[C@]2(C)[C@H](C)CC[C@]3(CCC(=O)[C@H]32)[C@@H](C)[C@@H]1O; 1
2. C=C[C@]1(C)C[C@@H](OC(=O)CS[C@@H]2CC[C@H](C(=O)OCC)C[C@H]2NS(=O)(=O)c2ccc(OC)cc2)[C@]2(C)[C@H](C)CC[C@]3(CCC(=O)[C@H]32)[C@@H](C)[C@@H]1O; 0.5
3. C=C[C@]1(C)C[C@@H](OC(=O)CS[C@@H]2CC[C@H](C(=O)OCC)C[C@H]2NS(=O)(=O)c2ccc(C#N)cc2)[C@]2(C)[C@H](C)CC[C@]3(CCC(=O)[C@H]32)[C@@H](C)[C@@H]1O; 1
4. C=C[C@]1(C)C[C@@H](OC(=O)CS[C@@H]2CC[C@H](C(=O)OCC)C[C@H]2N)[C@]2(C)[C@H](C)CC[C@]3(CCC(=O)[C@H]32)[C@@H](C)[C@@H]1O; 1
5. C=C[C@]1(C)C[C@@H](OC(=O)CS[C@@H]2CC[C@H](C(=O)OCC)C[C@H]2NS(=O)(=O)c2ccc([N+](=O)[O-])cc2)[C@]2(C)[C@H](C)CC[C@]3(CCC(=O)[C@H]32)[C@@H](C)[C@@H]1O; 1

###

Listing of recorded MIC by entry.
system: Staphylococcus aureus; test: Antibacterial activity against methicillin-sensitive Staphylococcus aureus ATCC 29213 assessed as reduction in bacterial growth incubated for 18 hrs by agar dilution method; assay type: functional; settings: ATCC 29213, 18 h
test readout: MIC (µg/mL)

1. C=C[C@]1(C)C[C@@H](OC(=O)CS[C@@H]2CC[C@@H](N)C[C@H]2O)[C@]2(C)[C@H](C)CC[C@]3(CCC(=O)[C@H]32)[C@@H](C)[C@@H]1O; 0.25
2. C=C[C@]1(C)C[C@@H](OC(=O)CS[C@@H]2CC[C@H](C(=O)O)C[C@H]2N)[C@]2(C)[C@H](C)CC[C@]3(CCC(=O)[C@H]32)[C@@H](C)[C@@H]1O; 32
3. C=C[C@]1(C)C[C@@H](OC(=O)CS[C@@H]2CC[C@H](C(=O)OCC)C[C@H]2NS(=O)(=O)c2ccc(Br)cc2)[C@]2(C)[C@H](C)CC[C@]3(CCC(=O)[C@H]32)[C@@H](C)[C@@H]1O; 1
4. C=C[C@]1(C)C[C@@H](OC(=O)CS[C@@H]2CC[C@H](C(=O)OCC)C[C@H]2NS(=O)(=O)c2ccc(C(C)=O)cc2)[C@]2(C)[C@H](C)CC[C@]3(CCC(=O)[C@H]32)[C@@H](C)[C@@H]1O; 0.25
5. C=C[C@]1(C)C[C@@H](OC(=O)CS[C@@H]2CC[C@H](C(=O)OCC)C[C@H]2NS(=O)(=O)c2ccccc2)[C@]2(C)[C@H](C)CC[C@]3(CCC(=O)[C@H]32)[C@@H](C)[C@@H]1O; 1
